Values from PubChem BioAssay (NCI)

- Tested on: SW-620 colon
- measurementDescription: NCI tumour cell line growth inhibition, 48 h
assayMetric: GI50

Name the reported GI50 value associated with the molecule O=c1[nH]cnc2c1ccn2C1OC(CO)C(O)C1O (centres undefined)
3.17 µM

Name the reported GI50 value associated with the molecule O=C(/C=C/c1cccs1)c1ccc(Cl)cc1Cl
18.8 µM

Name the reported GI50 value associated with the molecule CCCCCCCCCC(CCCC(O)CC(=O)O)OC1OC(COC2OC(C)C(O)C(O)C2O)C(O)C(O)C1OC1OC(CO)C(O)C(O)C1OC1OC(C)C(OC(=O)CC(C)C)C(O)C1O (centres undefined)
> 60 µM

Name the reported GI50 value associated with the molecule O=C1C=CC=C[C@@H]2C(C3OCCO3)CC[C@H]12.[C-]#[O+].[C-]#[O+].[C-]#[O+].[Fe] (some centres undefined)
29.9 µM

Name the reported GI50 value associated with the molecule COc1ccc(C2C(C#N)=C(N)Oc3c2sc2c(F)cccc32)cc1 (centres undefined)
1.82 µM

Name the reported GI50 value associated with the molecule COc1cccc(/C(COc2ccc3c(c2)oc(=O)c2ccccc23)=N\O)c1
42.5 µM

Name the reported GI50 value associated with the molecule COc1ccc(NC(=O)Nc2ccccc2CNc2nc(Nc3ccc(OCCN4CCCC4)cc3)ncc2Cl)cc1
1.05 µM

Name the reported GI50 value associated with the molecule O=C1NC(=NCc2ccccc2Br)S/C1=C\c1ccc2ncccc2c1
6.71 µM

Name the reported GI50 value associated with the molecule O=C(OCc1nc2nc(Cl)nc(N3CCOCC3)c2[nH]1)n1ccnc1
1.5 µM
